- Tested on: E. coli AG100
- protocol-notes: Broth microdilution MIC in CAMHB
- Assay type: cell-based
- settings: Escherichia coli; MHB; wild-type parent strain E. coli AG100; read-out: Minimum Inhibitory Concentration, E. coli AG100
Attribute: MIC

Some compounds with known MIC results, for comparison:
[
  {
    "compound": "NCCN1CCN(C(=O)N[C@@H](C(=O)N[C@H]2Cc3cccc(C(=O)O)c3OB2O)c2c(F)cccc2F)C(=O)C1=O (single isomer, unassigned)",
    "MIC": "> 128 µg/mL"
  },
  {
    "compound": "C[C@H]1CN(CCF)C(=O)C(=O)N1C(=O)NC(C(=O)N[C@H]1Cc2cccc(C(=O)O)c2OB1O)c1cc(F)c(O)c(F)c1F (some centres unmarked)",
    "MIC": "32 to 64 µg/mL"
  },
  {
    "compound": "NCCCN1CCN(C(=O)N[C@@H](C(=O)N[C@H]2Cc3cccc(C(=O)O)c3OB2O)c2cc(F)c(O)c(F)c2F)C(=O)C1=O (single isomer, unassigned)",
    "MIC": "> 128 µg/mL"
  },
  {
    "compound": "NCCCN1CCN(C(=O)N[C@@H](C(=O)N[C@H]2Cc3cccc(C(=O)O)c3OB2O)c2ccc(O)c(F)c2F)C(=O)C1=O (single isomer, unassigned)",
    "MIC": "32 to 64 µg/mL"
  }
]

Proceed to the following item.
In: Given the entry CCN1C[C@H](C)N(C(=O)NC(C(=O)N[C@H]2Cc3cccc(C(=O)O)c3OB2O)c2c(F)cc(O)cc2F)C(=O)C1=O (some centres unmarked) , report its measured MIC.
Out: 32 to 64 µg/mL
